- experiment notes: qHTS of pediatric cancer cell lines to identify multiple opportunities for drug repurposing: Primary screen for OHS-50 cells (AID 1347103); further: nearly all actives have a fitted effect of over 40% in size
- condition summary: OHS-50 osteosarcoma viability, CellTiter-Glo luminescence, 48 h; series mostly up to 57.3 µM
Records with an inconclusive call do not appear. Activity calls are given as the source filed them. The call rests on the fitted dose curve; in most records, active means well fitted cell-killing curve with a large enough effect; inconclusive means small, poorly fitted or top-dose-only effect; inactive means no such curve, though single readings can be large or run the other way.
Return exactly one item of yes = active, no = inactive

[[record]]
compound = "Clc1ccc(C(OCCN2CCCCC2)c2ccccc2)cc1 (configuration not stated)"
label_class = "yes"

[[record]]
compound = "CCC(OC(C)=O)C(CC(C)NC)(c1ccccc1)c1ccccc1 (configuration not stated)"
label_class = "yes"


q: Answer briefly: the call reported for O=C(CCCCl)c1ccc(F)cc1 in this assay.
a: no

q: Answer briefly: the call reported for Cc1ccc([N+](=O)[O-])[c]2c1[O][Hg]2 in this assay.
a: yes

q: Answer briefly: the call reported for O=c1n(Cl)c(=O)n(Cl)c(=O)n1Cl in this assay.
a: no

q: Answer briefly: the call reported for CCCCCCCCCCCC[N+](C)(C)CCOc1ccccc1 in this assay.
a: yes
